# maps each entry to its IC50
PROTOCOL TEXT: Tested for 50% inhibition of generation of Human Ha-ras polymerase chain reaction(PCR) products
Lab book: enter the figure in nM, no units written.

These recorded examples may help you get a feel for the data.
1) Cn1cc(NC(=O)c2cc(NC(=O)c3cc(NC(=O)c4cc5cc(NC(=O)c6ccc(N(CCCl)CCCl)cc6)ccc5n4C)cn3C)cn2C)cc1C(=O)NCCC(=N)N
15
2) Cn1cc(NC(=O)c2cc(NC(=O)c3cc(NC(=O)c4cc5cc(NC(=O)c6ccc(N(CCCl)CCCl)cc6)ccc5o4)cn3C)cn2C)cc1C(=O)NCCC(=N)N
15
3) Cn1cc(NC(=O)c2cc(NC(=O)c3cc(NC(=O)c4cc5cc(N(CCCl)CCCl)ccc5o4)cn3C)cn2C)cc1C(=O)NCCC(=N)N
15
4) Cn1cc(NC(=O)c2cc(NC(=O)c3cc(NC(=O)c4nc5ccc(NC(=O)c6ccc(N(CCCl)CCCl)cc6)cc5[nH]4)cn3C)cn2C)cc1C(=O)NCCC(=N)N
15
5) Cn1cc(NC(=O)c2cc(NC(=O)c3cc(NC(=O)c4cc5cc(NC(=O)c6ccc(N(CCCl)CCCl)cc6)ccc5[nH]4)cn3C)cn2C)cc1C(=O)NCCC(=N)N
15
6) Cn1cc(NC(=O)c2cc(NC(=O)c3cc(NC(=O)c4cc5cc(N(CCCl)CCCl)ccc5n4C)cn3C)cn2C)cc1C(=O)NCCC(=N)N
20

Next item in the queue.
Briefly, IC50 measured for Cn1cc(NC(=O)c2cc(NC(=O)c3cc(NC(=O)c4cc5cc(N(CCCl)CCCl)ccc5[nH]4)cn3C)cn2C)cc1C(=O)NCCC(=N)N : 20
